- System: 857933-349-R-J2-PDC complex spheroid viability
- assayProcedure: Anticancer human tumor 857933-349-R-J2-PDC patient-derived colon adenocarcinoma cell line growth inhibition [POLQ]
- assayContext: second compound 1 µM; first compound 10 µM; stronger effect = lower value
quantityName: viability, T/C (%)
One number for each entry, in %.

Example compounds with recorded viability, T/C:
{"compound": "CC1COCCN1c1cc(-c2ccnn2C)c2ccnc(-c3ccn[nH]3)c2n1 (stereo not given) + Cc1cccc(N(C)C(=O)C2C(O)CCN2c2nc(C)cc(C(F)(F)F)c2C#N)c1", "viability, T/C, %": 43.4}
{"compound": "C#Cc1c(F)ccc2cc(O)cc(-c3ncc4c(N5CC6CCC(C5)N6)nc(OCC56CCCN5CC(F)C6)nc4c3F)c12 (stereo not given) + Nc1ccc(C#CCN(C(=O)Cc2ncc(C(F)(F)F)cc2C(F)(F)F)c2ccc(F)cc2)nn1", "viability, T/C, %": 70.6}
{"compound": "CC1COCCN1c1cc(C2(O)CC3CCC(C2)O3)c2cnn(-c3ccn[nH]3)c2n1 (stereo not given) + COC1C(OC(N)=O)C(O)C(Oc2ccc3c(O)c(NC(=O)c4ccc(O)c(CC=C(C)C)c4)c(=O)oc3c2C)OC1(C)C", "viability, T/C, %": 51.4}
{"compound": "O=c1[nH]cc(F)c(=O)[nH]1 + COC1C(OC(N)=O)C(O)C(Oc2ccc3c(O)c(NC(=O)c4ccc(O)c(CC=C(C)C)c4)c(=O)oc3c2C)OC1(C)C", "viability, T/C, %": 30}
{"compound": "CC(C)n1c(=O)n(C)c2cnc3cc(F)c(-c4ccc(OCCCN5CCCCC5)nc4)cc3c21 + COC1C(OC(N)=O)C(O)C(Oc2ccc3c(O)c(NC(=O)c4ccc(O)c(CC=C(C)C)c4)c(=O)oc3c2C)OC1(C)C", "viability, T/C, %": 122}

Give viability, T/C for all compounds that follow.
1. C=CC(=O)N1CCN(c2nc(=O)n(-c3c(C)ccnc3C(C)C)c3nc(-c4c(O)cccc4F)c(F)cc23)C(C)C1 (stereo not given) + COC1C(OC(N)=O)C(O)C(Oc2ccc3c(O)c(NC(=O)c4ccc(O)c(CC=C(C)C)c4)c(=O)oc3c2C)OC1(C)C
2. CC1COCCN1c1cc(-c2ccnn2C)c2ccnc(-c3ccn[nH]3)c2n1 (stereo not given) + Nc1ccc(C#CCN(C(=O)Cc2ncc(C(F)(F)F)cc2C(F)(F)F)c2ccc(F)cc2)nn1
3. CC1COCCN1c1cc(-c2ccnn2C)c2ccnc(-c3ccn[nH]3)c2n1 (stereo not given) + COC1C(OC(N)=O)C(O)C(Oc2ccc3c(O)c(NC(=O)c4ccc(O)c(CC=C(C)C)c4)c(=O)oc3c2C)OC1(C)C

Ans:
1: 93.3; 2: 45.6; 3: 50

====

- Test system: 857933-349-R-J2-PDC complex spheroid viability
- assayProcedure: Anticancer human tumor 857933-349-R-J2-PDC cell line growth inhibition [POLQ]; active means viability on the fitted dose curve at most 10% of control; inactive means the rest;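 also: spheroids exposed to compounds for seven days before readout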
- assayContext: second compound 0.0316 µM; first compound 10 µM
Write down one outcome, taken from Y for active, N for inactive

{"molecule": "Nc1ccn(C2OC(CO)C(O)C2(F)F)c(=O)n1 (configuration not stated) + Nc1ccc(C#CCN(C(=O)Cc2ncc(C(F)(F)F)cc2C(F)(F)F)c2ccc(F)cc2)nn1", "labelClass": "Y"}
{"molecule": "Nc1ccn(C2OC(CO)C(O)C2(F)F)c(=O)n1 (configuration not stated) + COC1C(OC(N)=O)C(O)C(Oc2ccc3c(O)c(NC(=O)c4ccc(O)c(CC=C(C)C)c4)c(=O)oc3c2C)OC1(C)C", "labelClass": "N"}
{"molecule": "O=C(Nc1ccc(O)c(NS(=O)(=O)c2ccc(F)cc2)c1)c1ccc(-c2ccccc2)cc1 + Cc1cccc(N(C)C(=O)C2C(O)CCN2c2nc(C)cc(C(F)(F)F)c2C#N)c1", "labelClass": "N"}

Q: How was CC1COCCN1c1cc(-c2ccnn2C)c2ccnc(-c3ccn[nH]3)c2n1 (configuration not stated) + COC1C(OC(N)=O)C(O)C(Oc2ccc3c(O)c(NC(=O)c4ccc(O)c(CC=C(C)C)c4)c(=O)oc3c2C)OC1(C)C classified in this test?
Ans: N

Q: Hi team, can someone confirm the assay call for CC1COCCN1c1cc(-c2ccnn2C)c2ccnc(-c3ccn[nH]3)c2n1 (configuration not stated) + Cc1cccc(N(C)C(=O)C2C(O)CCN2c2nc(C)cc(C(F)(F)F)c2C#N)c1 ?
Ans: N

The reported numbers originate from PubChem BioAssay AID1963836.
